# assayed-system: CYP3A (Homo sapiens)
# Sequence (P08684 2-503): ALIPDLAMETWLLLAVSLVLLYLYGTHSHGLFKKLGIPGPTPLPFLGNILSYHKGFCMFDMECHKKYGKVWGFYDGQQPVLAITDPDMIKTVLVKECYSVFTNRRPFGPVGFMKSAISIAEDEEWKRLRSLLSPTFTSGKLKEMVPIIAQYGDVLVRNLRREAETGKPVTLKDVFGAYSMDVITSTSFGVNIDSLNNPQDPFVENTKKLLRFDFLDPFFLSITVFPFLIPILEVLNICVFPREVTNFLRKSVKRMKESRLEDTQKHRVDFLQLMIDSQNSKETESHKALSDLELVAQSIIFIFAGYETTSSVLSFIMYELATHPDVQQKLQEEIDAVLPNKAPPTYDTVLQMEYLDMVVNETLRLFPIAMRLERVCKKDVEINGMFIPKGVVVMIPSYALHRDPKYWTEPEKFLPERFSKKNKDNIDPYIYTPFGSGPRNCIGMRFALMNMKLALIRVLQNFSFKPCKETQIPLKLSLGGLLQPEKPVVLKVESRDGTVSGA
# assay-remarks: in vitro
# assay-conditions: microsomes, pH 7.4, % of Control Enzyme Activity, 10 μM, n=1
property-name: activity at 10 µM (%)
Enter your answer as a number in %; do not include the unit.

For O=C(O)c1cc(-c2ccc(/C=C3\SC(=S)N(CCc4ccccc4)C3=O)o2)ccc1Cl , write its activity at 10 µM.
61.6

###

# Test system: P-gp
# assay-remarks: in vitro
# assay-conditions: human, Caco-2, pH 7.4, Papp A-to-B, single replicates (R1, R2)
property-name: Papp A→B (×10⁻⁶ cm/s)
Reply numerically in ×10⁻⁶ cm/s, unit not repeated.

Please indicate Papp A→B recorded for O=C(O)c1cc(-c2ccc(/C=C3\SC(=S)N(CCc4ccccc4)C3=O)o2)ccc1Cl
20.4
